Target: PCSK9Δhelix (Homo sapiens)
Construct: Human PCSK9 construct M1-Q692 with an engineered TEV site (residue deletion Y166, R167); made in house; host or cells: CHO
Sequence (Q8NBP7 with tags, fused parts or gaps limits assumed): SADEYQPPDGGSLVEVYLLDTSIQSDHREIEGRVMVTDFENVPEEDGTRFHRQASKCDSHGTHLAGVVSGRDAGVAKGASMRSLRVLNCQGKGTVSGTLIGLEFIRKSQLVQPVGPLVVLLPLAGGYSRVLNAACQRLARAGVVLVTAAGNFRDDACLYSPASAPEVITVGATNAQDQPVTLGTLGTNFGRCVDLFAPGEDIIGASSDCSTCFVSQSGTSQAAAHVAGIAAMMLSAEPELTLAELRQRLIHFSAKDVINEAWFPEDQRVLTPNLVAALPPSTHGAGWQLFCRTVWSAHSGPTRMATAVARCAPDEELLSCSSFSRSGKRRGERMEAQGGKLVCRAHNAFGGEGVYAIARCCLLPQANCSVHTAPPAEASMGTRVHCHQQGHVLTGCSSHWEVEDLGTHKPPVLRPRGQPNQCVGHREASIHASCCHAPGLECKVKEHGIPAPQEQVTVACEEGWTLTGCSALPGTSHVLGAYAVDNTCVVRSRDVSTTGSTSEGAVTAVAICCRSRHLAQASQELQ
Sequence (Q8NBP7 31-152 partner limits assumed): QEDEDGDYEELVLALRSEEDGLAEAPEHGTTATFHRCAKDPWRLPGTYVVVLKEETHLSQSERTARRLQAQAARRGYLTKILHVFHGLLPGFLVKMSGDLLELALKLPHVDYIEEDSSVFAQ
Experiment: PCSK9Δhelix/Ab20 TR-FRET binding assay
Conditions: TR-FRET; Table 8E, additional compounds; read-out: PCSK9Δhelix/Ab20 IC50
pIC50: −log10 of the molar value. Square brackets hold non-standard residues; d marks the D form. Peptide text beside a SMILES is read from it. * marks the point of attachment. Butanoyl(4-OPh) = O=C(CCCOc1ccccc1)*; Pentanoyl(5-Ph) = O=C(CCCCc1ccccc1)*; hArg = N=C(N)NCCCC[C@H](N)C(=O)O; X8 = O=C(c1ccc(N2CCOCC2)nc1)*; X41 = O=C(CCn1cncn1)*
pIC50 of 5 or higher: MET. Under 5: NOT MET.

Compound	Assay target	Class name
CC[C@H](C)[C@H](NC(=O)[C@H](CCCCNC(=N)N)NC(=O)[C@@H](NC(=O)[C@H](CC(C)C)NC(=O)[C@H](CC(N)=O)NC(=O)[C@H](Cc1c[nH]c2ccccc12)NC(=O)CNC(=O)[C@@H]1CCCN1C(=O)[C@H](Cc1ccccc1)NC(=O)[C@H](CO)NC(=O)[C@H](CCC(=O)O)NC(C)=O)C(C)C)C(=O)NCC(=O)N[C@@H](CC(C)C)C(=O)N[C@@H](CC(C)C)C(=O)N[C@@H](CCCNC(=N)N)C(N)=O [Compound 227] (Ac-ESFPGWNLV[hArg]IGLLR-NH2)	PCSK9Δhelix (Homo sapiens)	NOT MET
CC[C@H](C)[C@H](NC(=O)[C@H](CCCCNC(=N)N)NC(=O)[C@@H](NC(=O)[C@H](CC(C)C)NC(=O)[C@H](CC(N)=O)NC(=O)[C@H](Cc1c[nH]c2ccccc12)NC(=O)CCCOc1ccccc1)C(C)C)C(=O)NCC(=O)N[C@@H](CC(C)C)C(=O)N[C@@H](CC(C)C)C(=O)N[C@@H](CCCNC(=N)N)C(N)=O [Compound 209] ({Butanoyl(4-OPh)}-WNLV[hArg]IGLLR-NH2)	PCSK9Δhelix (Homo sapiens)	MET
CC[C@H](C)[C@H](NC(=O)[C@H](CCCNC(=N)N)NC(=O)[C@@H](NC(=O)[C@H](CC(C)C)NC(=O)[C@H](CC(N)=O)NC(=O)[C@H](Cc1c[nH]c2ccccc12)NC(=O)c1ccc(N2CCOCC2)nc1)C(C)C)C(=O)NCC(=O)N[C@@H](CC(C)C)C(=O)N[C@@H](CC(C)C)C(=O)N[C@@H](CCCNC(=N)N)C(N)=O [Compound 134] (X8-WNLVRIGLLR-NH2)	PCSK9Δhelix (Homo sapiens)	MET
CC[C@H](C)[C@H](NC(=O)[C@H](CCCNC(=N)N)NC(=O)[C@@H](NC(=O)[C@H](CC(C)C)NC(=O)[C@H](CC(N)=O)NC(=O)[C@H](Cc1c[nH]c2ccccc12)NC(=O)CCn1cncn1)C(C)C)C(=O)NCC(=O)N[C@@H](CC(C)C)C(=O)N[C@@H](CC(C)C)C(=O)N[C@@H](CCCNC(=N)N)C(N)=O [Compound 142] (X41-WNLVRIGLLR-NH2)	PCSK9Δhelix (Homo sapiens)	NOT MET
CC[C@H](C)[C@H](NC(=O)[C@H](CCCNC(=N)N)NC(=O)[C@@H](NC(=O)[C@H](CC(C)C)NC(=O)[C@H](CC(N)=O)NC(=O)[C@H](Cc1c[nH]c2ccccc12)NC(=O)CCCCc1ccccc1)C(C)C)C(=O)NCC(=O)N[C@@H](CC(C)C)C(=O)N[C@@H](CC(C)C)C(=O)N[C@@H](CCCNC(=N)N)C(N)=O [Compound 146] ({Pentanoyl(5-Ph)}-WNLVRIGLLR-NH2)	PCSK9Δhelix (Homo sapiens)	MET
